Target: native rat brain NR2B receptors (Rattus norvegicus (Rat), UniProt P35439+Q00960)
Sequence (Q00960 27-1482, other chains not shown): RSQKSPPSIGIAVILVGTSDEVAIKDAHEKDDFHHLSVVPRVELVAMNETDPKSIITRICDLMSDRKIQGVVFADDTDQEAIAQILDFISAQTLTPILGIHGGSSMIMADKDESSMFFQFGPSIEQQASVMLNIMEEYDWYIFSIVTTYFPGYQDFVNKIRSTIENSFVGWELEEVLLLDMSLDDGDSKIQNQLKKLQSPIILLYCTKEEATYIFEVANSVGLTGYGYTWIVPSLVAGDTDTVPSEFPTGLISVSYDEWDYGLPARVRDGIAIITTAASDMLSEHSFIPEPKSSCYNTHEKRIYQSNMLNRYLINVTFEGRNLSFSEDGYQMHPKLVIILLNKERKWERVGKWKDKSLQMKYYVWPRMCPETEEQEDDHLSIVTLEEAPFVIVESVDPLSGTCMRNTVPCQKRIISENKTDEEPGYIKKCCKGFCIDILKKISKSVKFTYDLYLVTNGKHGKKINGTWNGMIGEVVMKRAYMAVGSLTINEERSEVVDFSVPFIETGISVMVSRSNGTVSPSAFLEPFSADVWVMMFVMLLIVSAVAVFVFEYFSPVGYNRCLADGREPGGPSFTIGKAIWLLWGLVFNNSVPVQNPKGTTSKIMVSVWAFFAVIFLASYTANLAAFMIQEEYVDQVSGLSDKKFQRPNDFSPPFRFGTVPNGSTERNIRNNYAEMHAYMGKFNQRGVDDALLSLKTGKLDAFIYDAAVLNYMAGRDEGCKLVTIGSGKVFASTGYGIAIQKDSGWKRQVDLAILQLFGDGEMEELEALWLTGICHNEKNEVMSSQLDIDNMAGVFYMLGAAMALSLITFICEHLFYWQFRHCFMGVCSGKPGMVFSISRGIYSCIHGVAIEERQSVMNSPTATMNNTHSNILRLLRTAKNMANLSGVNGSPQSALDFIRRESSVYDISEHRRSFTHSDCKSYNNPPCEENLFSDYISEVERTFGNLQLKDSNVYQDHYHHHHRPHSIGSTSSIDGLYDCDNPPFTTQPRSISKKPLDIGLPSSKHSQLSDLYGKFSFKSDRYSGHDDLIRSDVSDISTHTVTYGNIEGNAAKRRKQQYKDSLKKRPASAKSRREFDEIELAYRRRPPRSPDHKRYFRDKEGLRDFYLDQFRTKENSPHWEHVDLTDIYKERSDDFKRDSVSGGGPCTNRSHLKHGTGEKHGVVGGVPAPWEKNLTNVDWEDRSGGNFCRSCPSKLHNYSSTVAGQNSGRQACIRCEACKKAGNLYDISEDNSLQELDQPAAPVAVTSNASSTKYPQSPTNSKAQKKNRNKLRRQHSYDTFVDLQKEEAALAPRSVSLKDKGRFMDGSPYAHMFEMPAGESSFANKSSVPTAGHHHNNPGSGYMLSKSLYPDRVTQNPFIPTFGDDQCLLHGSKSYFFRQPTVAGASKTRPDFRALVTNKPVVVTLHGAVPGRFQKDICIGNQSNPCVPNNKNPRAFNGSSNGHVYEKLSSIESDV
Assay: NR2B radioligand binding assay in rat brain using [3H] (E)-N1-(2-methoxybenzyl)-cinnamidine
Conditions: rat brain NR2B receptors; mean of replicates; read-out: Arithmetic Mean Ki
Counter-ions that a name gives are not always drawn.
Quantity Kind: Ki (nM)
# value in nM; strip the unit string

| Compound | Units | Ki |
| --- | --- | --- |
| Cc1ccc(COC(=O)N2CC[C@H](CNc3ccc(C)cn3)C(F)(F)C2)cc1 [E1-23.26^B′] | nM | 6.5 |
| Cc1ccc(COC(=O)N2CC[C@H](CNc3cnc(C#N)cn3)C(F)(F)C2)cc1 [E1-21.30^B′] | nM | 31 |
| Cc1ccc(COC(=O)N2CC[C@H](CNc3nccn4cnnc34)C(F)(F)C2)cc1 [E1-1.2^B′] | nM | 4.81 |
| O=C(OCc1ccc(C(F)F)cc1)N1CC[C@H](CNc2cccnn2)C(F)(F)C1 [E1-24.6^B′, hydrochloride] | nM | 4.7 |
| O=C(OCc1ccc(F)cc1)N1CC[C@H](CNc2ccncc2F)C(F)(F)C1 [E1-38.10^B′, mesylate] | nM | 3.8 |
| O=C(OCc1ccc(F)cc1)N1CC[C@H](CNc2ccccn2)C(F)(F)C1 [E1-23.4^B′] | nM | 7.8 |

We now examine a further compound.
Q: Recall and state the measured Ki for O=C(OCc1ccc(F)cc1)N1CC[C@H](CNc2ccncn2)C(F)(F)C1 [E1-37.4^B′, mesylate] .
Ans: 4.7

* * *

Biological target: human NR1/NR2B (Homo sapiens (Human), UniProt Q05586+Q13224)
Sequence (Q13224 27-1484, other chains not shown): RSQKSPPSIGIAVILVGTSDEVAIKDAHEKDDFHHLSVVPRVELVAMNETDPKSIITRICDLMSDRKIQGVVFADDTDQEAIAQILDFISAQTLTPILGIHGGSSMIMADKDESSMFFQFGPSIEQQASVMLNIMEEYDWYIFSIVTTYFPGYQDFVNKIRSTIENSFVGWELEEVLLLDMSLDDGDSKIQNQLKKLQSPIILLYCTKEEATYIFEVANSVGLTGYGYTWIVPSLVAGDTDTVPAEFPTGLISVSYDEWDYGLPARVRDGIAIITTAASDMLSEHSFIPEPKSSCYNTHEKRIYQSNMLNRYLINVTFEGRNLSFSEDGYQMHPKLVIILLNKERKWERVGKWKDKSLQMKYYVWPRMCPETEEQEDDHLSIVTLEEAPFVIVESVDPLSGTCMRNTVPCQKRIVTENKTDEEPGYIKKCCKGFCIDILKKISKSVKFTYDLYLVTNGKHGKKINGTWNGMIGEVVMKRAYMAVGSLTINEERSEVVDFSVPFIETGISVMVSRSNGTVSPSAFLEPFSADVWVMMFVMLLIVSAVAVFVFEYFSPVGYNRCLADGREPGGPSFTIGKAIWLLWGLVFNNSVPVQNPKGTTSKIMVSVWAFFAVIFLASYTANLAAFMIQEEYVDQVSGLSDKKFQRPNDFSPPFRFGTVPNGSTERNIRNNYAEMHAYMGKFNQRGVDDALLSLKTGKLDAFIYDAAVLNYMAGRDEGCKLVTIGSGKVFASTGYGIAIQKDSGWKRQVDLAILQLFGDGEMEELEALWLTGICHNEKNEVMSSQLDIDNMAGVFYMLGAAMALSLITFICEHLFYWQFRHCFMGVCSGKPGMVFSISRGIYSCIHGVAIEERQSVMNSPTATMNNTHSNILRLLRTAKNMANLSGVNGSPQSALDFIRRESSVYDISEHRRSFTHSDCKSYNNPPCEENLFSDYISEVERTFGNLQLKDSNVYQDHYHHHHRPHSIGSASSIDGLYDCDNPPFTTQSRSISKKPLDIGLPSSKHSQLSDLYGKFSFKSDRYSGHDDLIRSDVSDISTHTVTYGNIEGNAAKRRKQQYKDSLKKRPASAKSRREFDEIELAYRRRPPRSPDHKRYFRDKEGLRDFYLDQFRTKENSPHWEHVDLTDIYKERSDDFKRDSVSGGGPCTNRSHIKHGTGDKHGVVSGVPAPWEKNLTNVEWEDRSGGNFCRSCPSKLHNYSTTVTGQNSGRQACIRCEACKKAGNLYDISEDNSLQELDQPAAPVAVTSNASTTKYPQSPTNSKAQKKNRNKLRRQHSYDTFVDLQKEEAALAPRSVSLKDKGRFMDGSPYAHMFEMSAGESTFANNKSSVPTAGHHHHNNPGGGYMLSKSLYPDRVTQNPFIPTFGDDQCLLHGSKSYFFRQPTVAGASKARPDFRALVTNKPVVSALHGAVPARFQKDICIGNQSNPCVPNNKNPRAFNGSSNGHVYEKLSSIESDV
Experiment: NR2B antagonist activity: calcium influx (Fluo-4) assay in HEK293 cells
Format: cell-based
Conditions: Table 1.1B; read-out: NR2B IC50
Quantity Kind: IC50 (nM)
# value in nM; strip the unit string

Worked examples, 3 compounds total:
| Compound | Units | IC50 |
| --- | --- | --- |
| Cc1ccc(COC(=O)N2CC[C@H](CNc3cnc(C)cn3)C(F)(F)C2)cc1 [E1-21.26^B′] | nM | 29 |
| Cc1ccc(COC(=O)N2CC[C@@H](CNc3nccn4cnnc34)C(F)(F)C2)cc1 [E2-1.2^B′] | nM | 156 |
| O=C(OCc1ccc(Cl)cc1)N1CC[C@H](CNc2nccn3cnnc23)C(F)(F)C1 [E1-1.3^B′] | nM | 14.8 |

Q: Recall and state the measured IC50 for CCc1ccc(COC(=O)N2CC[C@H](CNc3nccn4cnnc34)C(F)(F)C2)cc1 [E1-1.5^B′] .
Ans: 9.6

Q: Recall and state the measured IC50 for O=C(OCc1ccc(F)cc1)N1CC[C@H](CNc2nccn3cnnc23)C(F)(F)C1 [E1-1.4^B′] .
Ans: 20.5

Q: Recall and state the measured IC50 for Cc1ccc(COC(=O)N2CC[C@H](CNc3cnccn3)C(F)(F)C2)cc1 [E1-21.2^B′] .
Ans: 13.9

Q: Recall and state the measured IC50 for Cc1ccc(COC(=O)N2CC[C@H](CNc3nccn4cnnc34)C(F)(F)C2)cc1 [E1-1.2^B′] .
Ans: 20.7

* * *

This listing pairs compounds with measured Ki.
Target: native rat brain NR2B receptors (Rattus norvegicus (Rat), UniProt P35439+Q00960)
Experiment: NR2B radioligand binding assay in rat brain using [3H] (E)-N1-(2-methoxybenzyl)-cinnamidine
Conditions: rat brain NR2B receptors; mean of replicates; read-out: Arithmetic Mean Ki
Structures can show the parent of a compound that is named as a salt.
# value in nM; strip the unit string

Worked examples, 5 compounds total:
| Compound | Units | Ki |
| --- | --- | --- |
| O=C(OCc1ccc(C(F)F)cc1)N1CC[C@H](CNc2ccncn2)C(F)(F)C1 [E1-37.6^B′, hydrochloride] | nM | 3.9 |
| Cc1ccc(COC(=O)N2CC[C@H](CNc3cccc(C)n3)C(F)(F)C2)cc1 [E1-23.32^B′] | nM | 31 |
| O=C(OCc1ccc(F)cc1)N1CC[C@H](CNc2cccnn2)C(F)(F)C1 [E1-24.4^B′, methanesulfonate] | nM | 10 |
| O=C(OCc1ccc(Cl)cc1)N1CC[C@H](CNc2nccn3cnnc23)C(F)(F)C1 [E1-1.3^B′] | nM | 8.67 |
| FC(F)(F)c1ccc(C(F)(F)CN2CCC(Nc3ncnc4[nH]ccc34)CC2)cn1 | nM | 31.6 |

Q: Recall and state the measured Ki for Cc1ccc(COC(=O)N2CC[C@H](CNc3ncc(C)cn3)C(F)(F)C2)cc1 [E1-22.26^B′, mesylate] .
Ans: 3.4
